Tested on: Bacillus subtilis
Assay: Antibacterial activity against Bacillus subtilis ATCC 21216 after 24 hrs by two-fold broth serial dilution method
Format: functional
Details: ATCC 21216, 24 h
observed_property: MIC

OC(Cn1cncn1)(Cn1cncn1)c1ccc(F)cc1F
1 to 256 µg/mL
Cc1cc(=O)oc2cc(OCC(O)Cn3nnnc3C)cc(OCC(O)Cn3nnnc3C)c12 (stereo unspecified)
32 to 512 µg/mL
Cc1cc(=O)oc2cc(OCC(O)Cn3cnnn3)ccc12 (stereo unspecified)
8 to 512 µg/mL
Cc1cc(=O)oc2cc(OCC(O)Cn3cnnn3)cc(OCC(O)Cn3cnnn3)c12 (stereo unspecified)
32 to 512 µg/mL
Cc1cc(=O)oc2cc(OCC(O)Cn3nnnc3C)ccc12 (stereo unspecified)
4 to 512 µg/mL
CCn1cc(C(=O)O)c(=O)c2cc(F)c(N3CCNCC3)cc21
1 to 16 µg/mL
